# TARGET UNDER TEST: recombinant human Bcl-2-G101V protein (Homo sapiens (Human), UniProt P10415, G101V)
# PROTOCOL: Bcl-2-G101V TR-FRET Assay
# Type: binding
# TEST CONDITIONS: Bcl-2 G101V mutant, TR-FRET; read-out: Biochemical assay (IC50, nM) Bcl-2 G101V
# Protocol: Biological Example: Bcl-2-G101V TR-FRET Assay […]. The TR-FRET signals (ex337 nm, em490 nm/520 nm) were read on BMG PHERAstar FSX instrument. The inhibition percentage of Bcl-2-G101V interaction with its ligand in presence of increasing concentrations of compounds was calculated based on the ratio of fluorescence at 490 nm to that at 520 nm. The IC50 for each compound was derived from fitting the data to the four-parameter logistic equation by Graphpad Prism software or Dotmatics.
PROPERTY: IC50 (nM)
Expressed in nM, but write only the number.

# count of solved cases: 2
INSERT INTO results (molecule, target_under_test, property, u, endpoint_value) VALUES
  ('COc1cc(CN2CCN(C3CC4(CCN(c5ccc(C(=O)NS(=O)(=O)c6ccc(NC[C@H]7CC[C@](C)(O)CC7)c([N+](=O)[O-])c6)c(Oc6cnc7[nH]cc(F)c7c6)c5)CC4)C3)[C@H](c3ccccc3C(C)C)C2)ccc1F', 'recombinant human Bcl-2-G101V protein (Homo sapiens (Human), UniProt P10415, G101V)', 'IC50', 'nM', 0.62),
  ('COc1cccc(CN2CCN(C3CC4(CCN(c5ccc(C(=O)NS(=O)(=O)c6ccc(NC[C@H]7CC[C@](C)(O)CC7)c([N+](=O)[O-])c6)c(Oc6cnc7[nH]ccc7c6)c5)CC4)C3)C(c3ccccc3C(C)C)C2)c1Cl (stereo partly shown)', 'recombinant human Bcl-2-G101V protein (Homo sapiens (Human), UniProt P10415, G101V)', 'IC50', 'nM', 3.4);

Read the entry COc1ccc(CN2CCN(C3CC4(CCN(c5ccc(C(=O)NS(=O)(=O)c6ccc(NC[C@H]7CC[C@](C)(O)CC7)c([N+](=O)[O-])c6)c(Oc6cnc7[nH]ccc7c6)c5)CC4)C3)C(c3ccccc3C3CCCC3)C2)cc1 (stereo partly shown) and write its reported IC50.
16

State its IC50: `COc1cc(CN2CCN(C3CC4(C3)CN(c3ccc(C(=O)NS(=O)(=O)c5ccc(NC[C@H]6CC[C@](C)(O)CC6)c([N+](=O)[O-])c5)c(Oc5cnc6[nH]ccc6c5)c3)C4)[C@H](c3ccccc3C(C)C)C2)cc2c1OCC2(C)C`
0.28

* * *

# TARGET UNDER TEST: Recombinant human Bcl-2 protein (Homo sapiens (Human), UniProt P10415)
# PROTOCOL: Bcl-2 TR-FRET Assay
# Format: binding
# TEST CONDITIONS: Bcl-2 wild type, TR-FRET; read-out: Biochemical assay (IC50, nM) Bcl-2 WT
PROPERTY: IC50 (nM)
Please reply with the bare figure in nM and do not write the unit itself.

Solved cases below.
INSERT INTO results (compound, property, endpoint_value) VALUES
  ('COc1cc(CN2CCN(C3CC4(CCN(c5ccc(C(=O)NS(=O)(=O)c6ccc(NC[C@H]7CC[C@](C)(O)CC7)c([N+](=O)[O-])c6)c(Oc6cnc7[nH]ccc7c6)c5)CC4)C3)[C@H](c3ccccc3C(C)C)C2)cc2c1OCCC2', 'IC50', 0.071),
  ('CC(C)c1ccccc1C1CN(CC2CCCCC2)CCN1C1CC2(CCN(c3ccc(C(=O)NS(=O)(=O)c4ccc(NC[C@H]5CC[C@](C)(O)CC5)c([N+](=O)[O-])c4)c(Oc4cnc5[nH]ccc5c4)c3)CC2)C1 (some centres unmarked)', 'IC50', 0.26),
  ('[2H]C([2H])([2H])Oc1ccc(CN2CCN(C3CC4(CCN(c5ccc(C(=O)NS(=O)(=O)c6ccc(NC[C@H]7CC[C@](C)(O)CC7)c([N+](=O)[O-])c6)c(Oc6cnc7[nH]ccc7c6)c5)CC4)C3)[C@H](c3ccccc3C(C)C)C2)cc1OC([2H])([2H])[2H]', 'IC50', 0.027);

Supply IC50 value. Item: CC(C)c1ccccc1C1CN(Cc2cccc3c2OCCC3)CCN1C1CC2(CCN(c3ccc(C(=O)NS(=O)(=O)c4ccc(NC[C@H]5CC[C@](C)(O)CC5)c([N+](=O)[O-])c4)c(Oc4cnc5[nH]ccc5c4)c3)CC2)C1 (some centres unmarked)
0.57

Indicate its recorded IC50; the compound in question is CC(C)c1ccccc1[C@@H]1CN(Cc2ccc(F)c(F)c2)CCN1C1CC2(CCN(c3ccc(C(=O)NS(=O)(=O)c4ccc(NC[C@H]5CC[C@](C)(O)CC5)c([N+](=O)[O-])c4)c(Oc4cnc5[nH]ccc5c4)c3)CC2)C1 (single isomer, unassigned) [Example 52a]
0.16

Specify measured IC50 for `COc1ccc(CN2CCN(C3CC4(C3)CN(c3ccc(C(=O)NS(=O)(=O)c5ccc(NC[C@H]6CC[C@](C)(O)CC6)c([N+](=O)[O-])c5)c(Oc5cnc6[nH]ccc6c5)c3)C4)[C@H](c3ccccc3C(C)C)C2)cc1OC` .
0.028

Please give the documented IC50 of `COc1cc(CN2CCN(C3CC4(C3)CN(c3ccc(C(=O)NS(=O)(=O)c5ccc(NC[C@H]6CC[C@](C)(O)CC6)c([N+](=O)[O-])c5)c(Oc5cnc6[nH]ccc6c5)c3)C4)[C@H](c3ccccc3C(C)C)C2)cc2c1OCCC2(C)C`
0.12

Kindly indicate its recorded IC50. Item: `CC(C)c1ccccc1[C@@H]1CN(Cc2ccc(C3CCOCC3)cc2)CCN1C1CC2(C1)CN(c1ccc(C(=O)NS(=O)(=O)c3ccc(NC[C@H]4CC[C@](C)(O)CC4)c([N+](=O)[O-])c3)c(Oc3cnc4[nH]cc(F)c4c3)c1)C2`
0.18
